All figures here come from the kinase profiling compilation of Christmann-Franck et al. (2016).

Target: MYLK (human)
Test: KINOMEscan competition binding
Details: compound 10.0 µM
Cut-off 60% on kinase still bound, per cent of control: below means Fulfilled, at or above means Not fulfilled.

COc1cc(C(=O)NC2CCN(C)CC2)ccc1Nc1ncc2c(n1)N(C1CCCC1)C(C)CC(=O)N2C (centres undefined) = Fulfilled
O=C(NOC[C@H](O)CO)c1ccc(F)c(F)c1Nc1ccc(I)cc1F = Not fulfilled
CCN1CCN(Cc2ccc(Nc3ncc4c(n3)N(C)c3ccccc3C(=O)N4C)cc2C(F)(F)F)CC1 = Not fulfilled
O=C1Nc2ccc(I)cc2/C1=C/c1cc(Br)c(O)c(Br)c1 = Fulfilled
Cn1c(=O)n(-c2ccc(C(C)(C)C#N)cc2)c2c3cc(-c4cnc5ccccc5c4)ccc3ncc21 = Not fulfilled
C=CC(=O)Nc1cccc(Nc2nc(N[C@H]3CC[C@H](N(C)C)CC3)nc3c2ncn3C(C)C)c1 = Fulfilled

Problem: Does this molecule meet the criterion kinase still bound, per cent of control < 60%? Cc1cc([C@@H](C)Nc2ccccc2C(=O)O)c2nc(N3CCOCC3)cc(=O)n2c1
Solution: Not fulfilled

Problem: Dear colleague, could you confirm whether kinase still bound, per cent of control of C=CC(=O)Nc1cccc(Oc2nc(Nc3ccc(N4CCN(C)CC4)cc3OC)ncc2Cl)c1 falls below 60%? Thanks.
Solution: Not fulfilled

Problem: kinase still bound, per cent of control strictly < 60% for this molecule? CN(C)C/C=C/C(=O)Nc1cccc(Nc2ncc3c(n2)N(C)c2ccccc2C(=O)N3C)c1
Solution: Not fulfilled
